SPR signal reference
Target: T1, anti-HRP antibody
T1 construct: also called anti-HRP antibody 10
Test: SPR, anti-HRP antibody immobilized on gold chip, peptide at 10 µM
No end group written: not given here.
Give the value, in units of RU, as a plain number.

Record excerpt, results attached:
INSERT INTO assay_data (binder, readout_kind, measured_result) VALUES
  ('VYYCFQGSHVPFTK (also: fluorescence label in fluorescence assays, dye and place not given here, also called PEPTIDE 4) [switching binder of SEQ ID NO. 4 (L2)]', 'SPR signal', 125),
  ('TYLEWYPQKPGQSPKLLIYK (also: fluorescence label in fluorescence assays, dye and place not given here, also called PEPTIDE 3) [switching binder of SEQ ID NO. 3 (L1)]', 'SPR signal', 25.3),
  ('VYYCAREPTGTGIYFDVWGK (also: fluorescence label in fluorescence assays, dye and place not given here, also called PEPTIDE 2) [switching binder of SEQ ID NO. 2 (H2)]', 'SPR signal', 51.5);

For the next question, use this binder.
q: Need SPR signal of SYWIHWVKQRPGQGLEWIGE (also: fluorescence label in fluorescence assays, dye and place not given here, also called PEPTIDE 1) [switching binder of SEQ ID NO. 1 (H1)] , thanks.
a: 34.4
